- protocolDescription: Particle size distribution of ORZY-05 by static automated imaging (Morphologi 4)
- Type: physicochemical
- testSettings: ORZY-05 particles
# Volume CE Diameter D90 >= 40 μm gives condition met, anything below gives condition not met

Determine whether this compound has Volume CE Diameter D90 no lower than 40 μm: O=C(O)CC(O)(CC(=O)O)C(=O)O.[O-][n+]1cccc(/C(Cl)=N/OC[C@H](O)CN2CCCCC2)c1 [18-003, arimoclomol citrate]
condition met

Form field: Volume CE Diameter D90 at least 40 μm? Entry: O=C(O)CC(O)(CC(=O)O)C(=O)O.[O-][n+]1cccc(/C(Cl)=N/OC[C@H](O)CN2CCCCC2)c1 [compound 1003, arimoclomol citrate]
condition not met

Threshold query (Volume CE Diameter D90 >= 40 μm) on O=C(O)CC(O)(CC(=O)O)C(=O)O.[O-][n+]1cccc(/C(Cl)=N/OC[C@H](O)CN2CCCCC2)c1 [17-001, arimoclomol citrate]
condition met

Does the reported Volume CE Diameter D90 for O=C(O)CC(O)(CC(=O)O)C(=O)O.[O-][n+]1cccc(/C(Cl)=N/OC[C@H](O)CN2CCCCC2)c1 [compound 1002, arimoclomol citrate] fall at or above the 40 μm mark?
condition met

Hi, just wondering whether O=C(O)CC(O)(CC(=O)O)C(=O)O.[O-][n+]1cccc(/C(Cl)=N/OC[C@H](O)CN2CCCCC2)c1 [18-001, arimoclomol citrate] shows Volume CE Diameter D90 of 40 μm or higher.
condition not met

Check this compound for Volume CE Diameter D90 at or above 40 μm: O=C(O)CC(O)(CC(=O)O)C(=O)O.[O-][n+]1cccc(/C(Cl)=N/OC[C@H](O)CN2CCCCC2)c1 [17-002, arimoclomol citrate]
condition not met

---

- protocolDescription: Particle size distribution of ORZY-05 by static automated imaging (Morphologi 4)
- Assay type: physicochemical
- testSettings: ORZY-05 particles
The label t is reserved for Number CE Diameter Mean strictly under 6 μm; f covers values equal to or above it.

Consider the compound O=C(O)CC(O)(CC(=O)O)C(=O)O.[O-][n+]1cccc(/C(Cl)=N/OC[C@H](O)CN2CCCCC2)c1 [compound 1003, arimoclomol citrate] . Is its Number CE Diameter Mean strictly less than 6 μm?
t

Just wondering, is Number CE Diameter Mean of O=C(O)CC(O)(CC(=O)O)C(=O)O.[O-][n+]1cccc(/C(Cl)=N/OC[C@H](O)CN2CCCCC2)c1 [18-004, arimoclomol citrate] below 6 μm?
f

Is it true that Number CE Diameter Mean reported for O=C(O)CC(O)(CC(=O)O)C(=O)O.[O-][n+]1cccc(/C(Cl)=N/OC[C@H](O)CN2CCCCC2)c1 [compound 1001, arimoclomol citrate] is less than 6 μm?
f

# TODO verify Number CE Diameter Mean < 6 μm strictly for this compound: O=C(O)CC(O)(CC(=O)O)C(=O)O.[O-][n+]1cccc(/C(Cl)=N/OC[C@H](O)CN2CCCCC2)c1 [17-002, arimoclomol citrate]
t

In the record for O=C(O)CC(O)(CC(=O)O)C(=O)O.[O-][n+]1cccc(/C(Cl)=N/OC[C@H](O)CN2CCCCC2)c1 [18-002, arimoclomol citrate] , is Number CE Diameter Mean less than 6 μm?
t

Is the reported Number CE Diameter Mean for O=C(O)CC(O)(CC(=O)O)C(=O)O.[O-][n+]1cccc(/C(Cl)=N/OC[C@H](O)CN2CCCCC2)c1 [18-001, arimoclomol citrate] strictly below 6 μm?
t
